test system: PPARg:RXRa (NR concentration 180 nM, RXRa partner concentration 90 nM); assay: PBM binding z-score (relative to random genomic background probes); higher = stronger binding; sequences stand for … in GC…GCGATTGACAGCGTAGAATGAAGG
Is PBM binding z-score at least 0.7? Then true (1). If not, false (0).

Use the examples below as a reference point.
{"SEQ TEXT": "CAAACTGGGTCACGAAAGGTCAAAGTCGAATGAC", "CLASSIFICATION": "true (1)"}
{"SEQ TEXT": "CCTCGGAGGACAGAAGGTCCGAGCTGTCCGCTTT", "CLASSIFICATION": "false (0)"}
{"SEQ TEXT": "CCGACTGGGGCAGAAAGGGTACCATACCATCCGG", "CLASSIFICATION": "true (1)"}
{"SEQ TEXT": "TAGCCTAGGTCATTCTGGGGCCAGTATAGAAAGC", "CLASSIFICATION": "true (1)"}
{"SEQ TEXT": "TGCATGAGGTTATAAGATCAGGGAACGTTGCAAA", "CLASSIFICATION": "true (1)"}
{"SEQ TEXT": "TCGAGTAGGTTAGGGGCATTTAGAATGGCGTCGA", "CLASSIFICATION": "true (1)"}

Input line: Item ATACCAAGGTGATCGTGAGGTCGTTGATACTAAC with PBM binding z-score of 0.7 or above?
Output line: false (0)

Input line: And the next one, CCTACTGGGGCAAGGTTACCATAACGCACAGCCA ?
Output line: true (1)

Input line: And the next one, CCGACTGGGGCAAAGGTTACCAAACTCAGTACGA ?
Output line: true (1)

Input line: And the next one, TAGCCTAGGACAGATCGGGCCAGTATACGCTATA ?
Output line: false (0)

Input line: And the next one, ATCTCTAGGTAAACATAGTTCAGTGAATGCAAAT ?
Output line: true (1)

Input line: And the next one, ATTTCTAGGTAAAAGTTCAGTGAATCCCGAGGAT ?
Output line: true (1)

* * *

# Lookup of reported PBM binding z-score keyed by entry
system: PPARg:RXRa 90nM:30nM, anti-RXR (NR concentration 90 nM, RXRa partner concentration 30 nM); assay: PBM binding z-score (relative to random genomic background probes); higher = stronger binding; sequences stand for … in GC…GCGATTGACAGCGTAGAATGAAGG
Could you keep your reply to the number by itself?

{"SEQ TEXT": "GCATATAGGTAAAACAAGGTGAAAGTCCGATTGT", "MEASURED METRIC": "PBM binding z-score", "RECORDED VALUE": 1.14}
{"SEQ TEXT": "TTACCAAGGTGAGCTTAGGTCGTTGATCCAACTC", "MEASURED METRIC": "PBM binding z-score", "RECORDED VALUE": 0.244}
{"SEQ TEXT": "TAGCCTAGGTCATTCAGGGACCAGTATAGAAAGC", "MEASURED METRIC": "PBM binding z-score", "RECORDED VALUE": 1.37}

Input line: Could you share which PBM binding z-score value was measured for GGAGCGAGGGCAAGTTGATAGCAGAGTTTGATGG ?
Output line: -0.121
